These data points were gathered from ChEMBL document CHEMBL1857833.

Please provide measured % inhibition for the entries that follow.
Test system: Trypanosoma brucei
test.name: DNDI: Inhibition of Human African Trypanosomiasis, SBRI 427, in vitro at 2 ug.mL-1
Assay type: functional
In all, about 4,400 compounds went through this assay and about 390 (8.9%) showed an effect of 50% or more. What follows is part of a selection rich in strong results, with near analogues and random picks from the rest.
Please report the result as a number followed by the unit.

Some compounds with known % inhibition results, for comparison:
{"compound": "O/N=C(/c1cccnc1OCc1cccc(F)c1)N1CCN(c2ccccc2)CC1", "test.target": "Trypanosoma brucei", "quantity.kind": "% inhibition", "result": "-1%"}
{"compound": "COc1ccc(Oc2cc(/C(=N/O)NC3CC(C)CC(C)(C)C3)ccn2)cc1 (centres undefined)", "test.target": "Trypanosoma brucei", "quantity.kind": "% inhibition", "result": "14%"}
{"compound": "CN(Cc1coc(-c2cccc(F)c2)n1)Cc1cccc2ccccc12", "test.target": "Trypanosoma brucei", "quantity.kind": "% inhibition", "result": "-3%"}

Attention now turns to another entry.
Q. Which measured % inhibition value corresponds to Cc1ccc(/C(=N/O)N2C(C)CCCC2C)c(Oc2cccc(F)c2)n1 (centres undefined) ?
A. 15%

###

Test system: Trypanosoma brucei
test.name: DNDI: Inhibition of Human African Trypanosomiasis, SBRI 427, in vitro at 2 ug.mL-1
Format: functional
Out of some 4,400 compounds screened, about 390 (8.9%) showed an effect of 50% or more. What follows is part of a selection rich in strong results, with near analogues and random picks from the rest.
Please provide measured % inhibition for the entries that follow.
One number for each entry, in %.

Look at each compound and report its % inhibition.
1. CCc1ccc(Oc2ncccc2/C(=N/O)NCc2ccccc2C)cc1
2. CCCN/C(=N\O)c1ccc(C)nc1Oc1ccc(SC)c(C)c1
3. CCOc1ccccc1CN/C(=N\O)c1cccnc1OC1CCC1
4. COc1ccc(Oc2ncccc2/C(=N/O)NCc2ccccc2C)cc1

A.
[99, 11, 5, 85]

Look at each compound and report its % inhibition.
1. COc1ccc(Oc2nc(C)ccc2/C(=N/O)NC2CCCC2)cc1
2. COc1ccc(Oc2nc(C)ccc2/C(=N/O)NC2CCC2)cc1

A.
101
-19

###

System: Trypanosoma brucei
test.name: DNDI: Inhibition of Human African Trypanosomiasis, SBRI 427, in vitro at 2 ug.mL-1
Type: functional
Hit rate of the full screen: of about 4,400 compounds, about 390 (8.9%) showed an effect of 50% or more. Shown is part of a subset that was picked to be rich in strong results.
quantity.kind: % inhibition (%)
Answers are plain numbers, in %.

Some compounds with known % inhibition results, for comparison:
{"compound": "Cc1ccc2cccc(Oc3cc(/C(=N/O)NC4CCC(C)CC4)ccn3)c2n1 (stereo not drawn)", "unit.info": "%", "% inhibition": 94}
{"compound": "COc1cc(CN(C)Cc2coc(-c3cccc4ccccc34)n2)cc(OC)c1OC", "unit.info": "%", "% inhibition": -3}
{"compound": "CN(Cc1coc(-c2ccccc2Cl)n1)CC1OCCO1", "unit.info": "%", "% inhibition": 8}

Look at each compound and report its % inhibition.
1. Cc1ccccc1CN/C(=N\O)c1ccnc(Oc2cccc3cccnc23)c1
2. COc1ccc(-c2nc(CN3C(C)C=CC3C)co2)cc1 (stereo not drawn)
3. CCOc1ccccc1N(Cc1ccccc1)Cc1coc(-c2ccc(O)cc2)n1
4. C=C(C)CN(CC)Cc1coc(-c2cccc3ccccc23)n1
5. CCc1ccc(Oc2ccc(/C(=N/O)Nc3ccccc3)cn2)cc1

A.
1. 43
2. 1
3. -16
4. -7
5. 17
